assay-procedure: Pharmacokinetic study in mice
Assay type: in vivo, mouse
recorded-conditions: male, CD-1, mouse, plasma, PO 3 mg/kg
Procedure: Male CD‐1 male mice were orally dosed with 1, 3, or 10 mg/kg API of LY3358966 SDD dissolved in water or were IV dosed with 1 mg/kg LY3358966 formulated in 25% dimethylacetamide, 15% ethanol, 10% propylene glycol, 25% 2‐pyrrolidone, and 25% water. Each dose group contained six animals. […] Plasma drug levels were determined by HPLC/MS. The unbound fraction of LY3358966 in plasma was determined with equilibrium dialysis and LC‐MS/MS.
measured-property: Tmax (min)
Reply numerically in min, unit not repeated.

What does the data say about its Tmax? Entry: `CC1(C)CN(C(=O)NCCCCO)CCN1Cc1cccc(C(=O)Nc2sc3c(c2C(=O)Nc2cc(F)c(CCc4ccc(C(=O)O)cc4)c(F)c2)CCCC3)c1`
24

---

assay-procedure: Pharmacokinetic study in mice
Assay type: in vivo, mouse
recorded-conditions: male, CD-1, mouse, plasma, po, 10 mg/kg, PO 10 mg/kg, read-out: F (bioavailability)
measured-property: bioavailability (%)
Give the value in % but do not write % after it.

Could you share which bioavailability value was measured for `CC1(C)CN(C(=O)NCCCCO)CCN1Cc1cccc(C(=O)Nc2sc3c(c2C(=O)Nc2cc(F)c(CCc4ccc(C(=O)O)cc4)c(F)c2)CCCC3)c1` ?
9

---

assay-procedure: Pharmacokinetic study in mice
Assay type: in vivo, mouse
recorded-conditions: male, CD-1, mouse, plasma, PO 1 mg/kg, SDD dissolved in water
Protocol: Male CD‐1 male mice were orally dosed with 1, 3, or 10 mg/kg API of LY3358966 SDD dissolved in water or were IV dosed with 1 mg/kg LY3358966 formulated in 25% dimethylacetamide, 15% ethanol, 10% propylene glycol, 25% 2‐pyrrolidone, and 25% water. Each dose group contained six animals. […] Plasma drug levels were determined by HPLC/MS. The unbound fraction of LY3358966 in plasma was determined with equilibrium dialysis and LC‐MS/MS.
measured-property: AUC
In your response, put the unit directly after the numeric value.

Any idea what AUC was measured for `CC1(C)CN(C(=O)NCCCCO)CCN1Cc1cccc(C(=O)Nc2sc3c(c2C(=O)Nc2cc(F)c(CCc4ccc(C(=O)O)cc4)c(F)c2)CCCC3)c1` ?
0.039 µM·h

---

assay-target: Human PiT1 (Homo sapiens, UniProt Q8WUM9)
Construct: Full Length cDNA Cloning and Generation of Cell Lines Over-Expressing Human NPT2a, NPT2c, Pit1, and Pit2; host or cells: CHO-K1, pcDNA3.1(+), constitutive
Sequence (Q8WUM9 1-679): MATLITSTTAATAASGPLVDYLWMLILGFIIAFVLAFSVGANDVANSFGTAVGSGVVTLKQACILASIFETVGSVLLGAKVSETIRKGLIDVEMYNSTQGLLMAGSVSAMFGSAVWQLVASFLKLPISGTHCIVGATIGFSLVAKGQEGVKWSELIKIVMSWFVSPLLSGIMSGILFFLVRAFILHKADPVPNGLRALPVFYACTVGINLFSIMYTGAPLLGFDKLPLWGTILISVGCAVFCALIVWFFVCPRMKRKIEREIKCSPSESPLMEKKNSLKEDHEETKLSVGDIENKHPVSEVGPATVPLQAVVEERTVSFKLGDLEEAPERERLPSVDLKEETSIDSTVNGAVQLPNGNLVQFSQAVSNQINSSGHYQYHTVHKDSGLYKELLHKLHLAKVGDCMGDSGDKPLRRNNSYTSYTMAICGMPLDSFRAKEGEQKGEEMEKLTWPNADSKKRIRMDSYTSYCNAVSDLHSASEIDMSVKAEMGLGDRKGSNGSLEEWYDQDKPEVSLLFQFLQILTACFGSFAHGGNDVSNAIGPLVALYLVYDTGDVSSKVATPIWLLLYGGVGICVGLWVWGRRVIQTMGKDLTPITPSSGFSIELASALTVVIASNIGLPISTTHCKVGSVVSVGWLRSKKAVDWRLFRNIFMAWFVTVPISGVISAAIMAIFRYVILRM
assay-procedure: 33P-phosphate uptake in CHO cells over-expressing human PiT1
Type: cell-based
recorded-conditions: 45 min at 20°C
From the text: T‐Rex™ Chinese Hamster Ovary cells (CHO; Thermo Fisher Scientific) stably expressing human, mouse, or rat NPT2b under a tetracycline‐inducible promoter were generated using standard cDNA transfection and clone selection procedures (see Supporting Information). […] The plate was immediately read on a Wallac MicroBeta Trilux liquid scintillation counter. […]
pIC50: −log10 of the molar value.
measured-property: pIC50

What pIC50 appears in the records for this compound with Human PiT1 (Homo sapiens, UniProt Q8WUM9)? `CC1(C)CN(C(=O)NCCCCO)CCN1Cc1cccc(C(=O)Nc2sc3c(c2C(=O)Nc2cc(F)c(CCc4ccc(C(=O)O)cc4)c(F)c2)CCCC3)c1`
< 4.00

Ref: paper PMC8863579
